Some compounds, each annotated with its measured pIC50.
Target: Genome polyprotein (Hepatitis C virus genotype 1b (isolate Japanese), UniProt P26662)
Test: HCV Polymerase Enzyme Assay
Text: Test compounds in the form of nucleoside triphosphates were examined for inhibitory activity against purified HCV polymerase in a standard assay. […] Both the wild-type genotype 1b protein and protein containing the S282T mutation were expressed and purified for use in the enzymatic activity assay.The enzymatic activity assay measured the inhibitory effect of increasing concentrations of test compound on the incorporation of α-[33P]-labeled nucleotide into trichloroacetic acid-precipitable material. […]
pIC50: −log10 of the molar value.

Examples from the recorded data:
{"compound.smiles": "C[C@@]1(Cl)[C@H](O)[C@@H](COP(=O)(O)OP(=O)(O)OP(=O)(O)O)O[C@H]1n1ccc(N)nc1=O", "pIC50": 5.26}
{"compound.smiles": "C[C@@]1(Cl)[C@H](O)[C@@H](COP(=O)(O)OP(=O)(O)OP(=O)(O)O)O[C@H]1n1cnc2c(N)ncnc21", "pIC50": "> 6.60"}
{"compound.smiles": "C[C@@]1(Cl)[C@H](O)[C@@H](COP(=O)(O)OP(=O)(O)OP(=O)(O)O)O[C@H]1n1cnc2c(N)nc(Cl)nc21", "pIC50": "< 5.00"}

Continue with the next compound.
Query block: Entry C[C@@]1(Cl)[C@H](O)[C@@H](COP(=O)(O)OP(=O)(O)OP(=O)(O)O)O[C@H]1n1ccc(=O)[nH]c1=O : reported pIC50 = ?
Result block: > 6.60

====

biological target: Genome polyprotein (Hepatitis C virus genotype 1b (isolate Japanese))
pIC50: −log10 of the molar value.
metric: pIC50

Examples from the recorded data:
{"compound.smiles": "C[C@@]1(Cl)[C@H](O)[C@@H](COP(=O)(O)OP(=O)(O)OP(=O)(O)O)O[C@H]1n1cnc2c(=O)[nH]c(N)nc21", "pIC50": "> 6.60"}
{"compound.smiles": "C[C@@]1(Cl)[C@H](O)[C@@H](COP(=O)(O)OP(=O)(O)OP(=O)(O)O)O[C@H]1n1cc(F)c2c(N)ncnc21", "pIC50": "> 6.60"}
{"compound.smiles": "C[C@@]1(Cl)[C@H](O)[C@@H](COP(=O)(O)OP(=O)(O)OP(=O)(O)O)O[C@H]1n1ccc2c(N)ncnc21", "pIC50": "> 6.60"}

Query block: Entry C[C@@]1(Cl)[C@H](O)[C@@H](COP(=O)(O)OP(=O)(O)OP(=O)(O)O)O[C@H]1n1cnc2c(N)nc(Cl)nc21 : reported pIC50 = ?
Result block: < 5.00
